Where do these numbers come from? They come from patent US12152051B2.

- Tested on: THP-1 dual cells
- measurementNotes: Type 1 IFN activation assay (THP-1 dual cells, QUANTI-Luc)
- Type: cell-based
- particulars: Homo sapiens, THP1-Dual, PMA-treated THP-1 dual cells, compound in digitonin PB buffer 30 min, then 24 h; expression level of IFN
attributeMeasured: EC50 (nM)
Number in nM, nothing else.

Give the reported EC50 for this compound. Nc1ncnc2c1ncn2C1OC2COP(=O)(S)OC3C(O)C(COP(=O)(S)OC2C1F)OC3n1c(=O)sc2c(N)ncnc21 (stereo not shown) [Compound 4-p2] 625

====

Consider the following molecules and their measured pEC50 readings.
- tgt: STING (Homo sapiens)
- Sequence (Q86WV6 whole entry): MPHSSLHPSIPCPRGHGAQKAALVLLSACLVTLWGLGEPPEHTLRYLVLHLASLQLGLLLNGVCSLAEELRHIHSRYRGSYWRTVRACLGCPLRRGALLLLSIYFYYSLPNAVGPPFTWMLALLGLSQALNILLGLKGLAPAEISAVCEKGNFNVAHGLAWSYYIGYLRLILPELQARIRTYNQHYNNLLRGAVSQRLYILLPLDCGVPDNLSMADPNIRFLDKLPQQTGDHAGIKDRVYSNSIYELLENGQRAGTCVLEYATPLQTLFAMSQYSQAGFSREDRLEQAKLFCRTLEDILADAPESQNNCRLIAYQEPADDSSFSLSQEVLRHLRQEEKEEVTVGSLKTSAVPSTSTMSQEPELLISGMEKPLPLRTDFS
- measurementNotes: STING IFNβ secretion assay (THP-1 cells, AlphaLISA IFN-β kit)
- particulars: 5 h incubation, secretion of IFN-β
To interpret pEC50, take it as minus log10 of a concentration measured in moles per litre.

[
  {
    "molecule": "Nc1ncnc2c1ncn2C1OC2COP(=O)(S)OC3C(O)C(COP(=O)(S)OC2C1F)OC3n1c(=O)sc2c(N)ncnc21 (centres unmarked) [Compound 4-p3]",
    "valueMeasured": 4.03
  }
]

Kindly review the next molecule as well.
Give the reported pEC50 for this molecule. Nc1ncnc2c1ncn2C1OC2COP(=O)(S)OC3C(O)C(COP(=O)(S)OC2C1F)OC3n1c(=O)sc2c(N)ncnc21 (centres unmarked) [Compound 4-p2] 4.44
